Field: HPLC peak area in hemolymph. Provide a value for each of the molecules that follow.
- protocol summary: Pharmacokinetics of antibiotics in silkworm hemolymph after injection (HPLC)
- assay conditions: 240 min after injection; raw data of Fig. 1
*1 amine or outer side, *2 acyl side, *3 side chain or, on linkers, in order; H or OH if unused. Where a SMILES comes first, the peptide text is derived from it. Bridges are numbered along the chain shown (N, C = ends). [ ]: non-standard residue; d: D form. The star is where a group is joined. hTyr(3S-OH,4S-OH,3'-OSO3H) = N[C@H](C(=O)O)[C@H](O)[C@@H](O)c1ccc(O)c(OS(=O)(=O)O)c1; Orn(4R-OH,5R-OH) = O=C([C@H](C[C@@H](O)[C@@H](O)N[*:3])N[*:1])[*:2]; Pro(3S-OH,4S-Me) = C[C@H]1CN[C@H](C(=O)O)[C@H]1O; X1 = CCCCCOc1ccc(-c2cc(-c3ccc(C(=O)*)cc3)no2)cc1; Gln(3R-OH) = NC(=O)C[C@@H](O)[C@H](N)C(=O)O; Hyp = O=C(O)[C@@H]1C[C@@H](O)CN1
Give bare numbers.

[
  {
    "molecule": "CN[C@H](CC(C)C)C(=O)N[C@H]1C(=O)N[C@@H](CC(N)=O)C(=O)N[C@H]2C(=O)N[C@H]3C(=O)N[C@H](C(=O)N[C@H](C(=O)O)c4cc(O)cc(O)c4-c4cc3ccc4O)[C@H](O)c3ccc(c(Cl)c3)Oc3cc2cc(c3O[C@@H]2O[C@H](CO)[C@@H](O)[C@H](O)[C@H]2O[C@H]2C[C@](C)(N)[C@H](O)[C@H](C)O2)Oc2ccc(cc2Cl)[C@H]1O [Vancomycin]",
    "HPLC peak area in hemolymph": 4148058
  },
  {
    "molecule": "CCCCCOc1ccc(-c2cc(-c3ccc(C(=O)N[C@H]4C[C@@H](O)[C@@H](O)NC(=O)[C@@H]5[C@@H](O)[C@@H](C)CN5C(=O)[C@H]([C@H](O)CC(N)=O)NC(=O)[C@H]([C@H](O)[C@@H](O)c5ccc(O)c(OS(=O)(=O)O)c5)NC(=O)[C@@H]5C[C@@H](O)CN5C(=O)[C@H]([C@@H](C)O)NC4=O)cc3)no2)cc1 [Micafungin] (X1-[Orn(4R-OH,5R-OH)]T[Hyp][hTyr(3S-OH,4S-OH,3'-OSO3H)][Gln(3R-OH)][Pro(3S-OH,4S-Me)]; lactam 1-C)",
    "HPLC peak area in hemolymph": 1002362
  },
  {
    "molecule": "CO[C@H]1/C=C/O[C@@]2(C)Oc3c(C)c(O)c4c(O)c(c(/C=N/N5CCN(C)CC5)c(O)c4c3C2=O)NC(=O)/C(C)=C\\C=C\\[C@H](C)[C@H](O)[C@@H](C)[C@@H](O)[C@@H](C)[C@H](OC(C)=O)[C@@H]1C [Rifampicin]",
    "HPLC peak area in hemolymph": 4977
  }
]

// next item, HPLC peak area in hemolymph requested
Query block: Returns the measured HPLC peak area in hemolymph for the input molecule. Input: CN(C)[C@@H]1C(O)=C(C(N)=O)C(=O)[C@@]2(O)C(O)=C3C(=O)c4c(O)cccc4[C@@](C)(O)[C@H]3C[C@@H]12 [Tetracycline]
Result block: 1202608

Sourced from paper PMC6602958
